- Assay remarks: Pharmacokinetic study in dogs (oral / intravenous), systemic half-life by LC-MS/MS
- Type: in vivo, dogs (beagle)
- Run conditions: systemic half-life of parent PPI in dogs after oral administration
- Procedure: Blood concentrations of the compounds omeprazole, lansoprazole, pantoprazole, rabeprazole, and test compounds were quantified using an achiral liquid chromatography tandem mass spectrometry method (LC-MS/MS). Systemic pharmacokinetic parameters were determined for omeprazole or lansoprazole using non-compartmental analysis in Watson® version 6.3, available from InnaPhase Corporation, Philadelphia, Pa.
Property: t1/2

Form field t1/2, entry COc1ccc(S(=O)(=O)n2c([S+]([O-])Cc3nccc(OCC(F)(F)F)c3C)nc3ccccc32)cc1C(=O)O (centres unmarked) : 66 min

Form field t1/2, entry Cc1c(OCC(F)(F)F)ccnc1C[S+]([O-])c1nc2ccccc2n1S(=O)(=O)c1ccc(CC(=O)O)cc1 (centres unmarked) : 53.4 min

====

- Assay remarks: Pharmacokinetic study in rats (oral / intravenous), systemic half-life by LC-MS/MS
- Format: in vivo, rats (Sprague-Dawley)
- Run conditions: Rat; systemic half-life of the proton pump inhibitor; SD in parenthesis; in h
Measured T1/2 PPI by item

Molecule: Cc1cc(C(=O)O)ccc1S(=O)(=O)n1c([S+]([O-])Cc2nccc(OCC(F)(F)F)c2C)nc2ccccc21 (centres unmarked)
T1/2 PPI: 2.19 (0.80)
//
Molecule: Cc1ccc(C(=O)O)cc1S(=O)(=O)n1c([S+]([O-])Cc2nccc(OCC(F)(F)F)c2C)nc2ccccc21 (centres unmarked)
T1/2 PPI: 2.35 (1.22)
//
Molecule: Cc1c(OCC(F)(F)F)ccnc1C[S+]([O-])c1nc2ccccc2n1S(=O)(=O)c1cccc(C(=O)O)c1 (centres unmarked)
T1/2 PPI: 1.93 (1.41)
//
Molecule: Cc1c(OCC(F)(F)F)ccnc1C[S+]([O-])c1nc2ccccc2n1S(=O)(=O)c1ccc(C(=O)O)cc1 (centres unmarked)
T1/2 PPI: 0.389 (0.085)

Form field T1/2 PPI, entry COc1ccc(S(=O)(=O)n2c([S+]([O-])Cc3nccc(OCC(F)(F)F)c3C)nc3ccccc32)cc1CCC(=O)O (centres unmarked) : 1.43 (0.42)

====

- Assay remarks: Pharmacokinetic study in rats (oral / intravenous), systemic half-life by LC-MS/MS
- Format: in vivo, rats (Sprague-Dawley)
- Run conditions: Rat; systemic half-life of the proton pump inhibitor; SD in parenthesis; in h
Property: T1/2 PPI

Previously resolved entries follow.
Compound: Cc1c(OCC(F)(F)F)ccnc1C[S+]([O-])c1nc2ccccc2n1S(=O)(=O)c1ccc(CC(=O)O)cc1 (stereo not shown)
T1/2 PPI: 0.341 (0.151)
--
Compound: COc1ccc(S(=O)(=O)n2c([S+]([O-])Cc3nccc(OCC(F)(F)F)c3C)nc3ccccc32)cc1C(=O)O (stereo not shown)
T1/2 PPI: 1.80 (1.20)
--
Compound: Cc1c(OCC(F)(F)F)ccnc1C[S+]([O-])c1nc2ccccc2n1S(=O)(=O)c1ccc(C(=O)O)c(OCC(=O)O)c1 (stereo not shown)
T1/2 PPI: 1.86 (0.74)

Form field T1/2 PPI, entry COc1ccc(C(=O)O)cc1S(=O)(=O)n1c([S+]([O-])Cc2nccc(OCC(F)(F)F)c2C)nc2ccccc21 (stereo not shown) : 0.536 (0.217)

Form field T1/2 PPI, entry Cc1c(OCC(F)(F)F)ccnc1C[S+]([O-])c1nc2ccccc2n1S(=O)(=O)c1ccc(OCC(C)(C)C(=O)O)cc1 (stereo not shown) : 0.933 (1.009)

Form field T1/2 PPI, entry Cc1cc(OCC(=O)O)cc(C)c1S(=O)(=O)n1c([S+]([O-])Cc2nccc(OCC(F)(F)F)c2C)nc2ccccc21 (stereo not shown) : 1.11 (0.71)

Form field T1/2 PPI, entry Cc1c(OCC(F)(F)F)ccnc1C[S+]([O-])c1nc2ccccc2n1S(=O)(=O)c1ccc(OCC(=O)O)c(OCC(=O)O)c1 (stereo not shown) : 1.84 (0.87)

====

- Assay remarks: Pharmacokinetic study in dogs (oral / intravenous), systemic half-life by LC-MS/MS
- Format: in vivo, dogs (beagle)
- Run conditions: Dog; systemic half-life of the proton pump inhibitor; SD in parenthesis
Measured T1/2 PPI by item
// return numeric value only (unit: min, not printed)

Previously resolved entries follow.
Compound: Cc1c(OCC(F)(F)F)ccnc1C[S+]([O-])c1nc2ccccc2n1S(=O)(=O)c1ccc(C(=O)O)cc1 (stereo not shown) [Compound 18]
T1/2 PPI (min): 54.5
--
Compound: COc1ccc(C(=O)O)cc1S(=O)(=O)n1c([S+]([O-])Cc2nccc(OCC(F)(F)F)c2C)nc2ccccc21 (stereo not shown) [Compound 14]
T1/2 PPI (min): 83.4
--
Compound: COc1ccc(S(=O)(=O)n2c([S+]([O-])Cc3nccc(OCC(F)(F)F)c3C)nc3ccccc32)cc1C(=O)O (stereo not shown) [Compound 8]
T1/2 PPI (min): 64.8

Proceed to the following item.
Form field T1/2 PPI, entry Cc1ccc(S(=O)(=O)n2c([S+]([O-])Cc3nccc(OCC(F)(F)F)c3C)nc3ccccc32)cc1CCC(=O)O (stereo not shown) [Compound 19] : 29

====

Measured t1/2 by item
- Assay remarks: Pharmacokinetic study in dogs (oral / intravenous), systemic half-life by LC-MS/MS
- Assay type: in vivo, dogs (beagle)
- Run conditions: systemic half-life of parent PPI in dogs after oral administration
// return numeric value only (unit: min, not printed)

Previously resolved entries follow.
Compound: Cc1c(OCC(F)(F)F)ccnc1C[S+]([O-])c1nc2ccccc2[nH]1 (stereo not drawn) [Lansoprazole, reference compound]
Uom: min
t1/2: 34.2

Compound: Cc1c(OCC(F)(F)F)ccnc1C[S+]([O-])c1nc2ccccc2n1S(=O)(=O)c1cccc(C(=O)O)c1 (stereo not drawn)
Uom: min
t1/2: 53.4

Proceed to the following item.
Form field t1/2, entry COc1ccc2[nH]c([S+]([O-])Cc3ncc(C)c(OC)c3C)nc2c1 (stereo not drawn) [Omeprazole, reference compound] : 42
